# Test system: HAP1 MTAP-deleted cell line
# RUN_DESCRIPTION: SDMA in-cell western assay, HAP1 MTAP-deleted
# Type: cell-based
# EXPERIMENTAL_CONTEXT: Homo sapiens, HAP1, SDMA in-cell western, HAP1 MTAP-deleted; read-out: HAP1 MTAP deleted IC50
ATTRIBUTE_MEASURED: IC50

>>> recorded_result("Cc1cc(NC(=O)C(=O)N2C[C@@H](C)CC[C@@H]2c2cc(F)cc(F)c2)cnc1N (single isomer, unassigned) [Compound 734]")
"< 0.1 µM"
>>> recorded_result("COc1ncc(NC(=O)C(=O)N2C[C@@H](C)CC[C@@H]2c2ccc(C(N)=O)s2)cc1C(N)=O (single isomer, unassigned) [Compound 837]")
"< 0.1 µM"
>>> recorded_result("C[C@H]1CC[C@H]([C@H]2CC[C@@H](O)CC2)N(C(=O)C(=O)Nc2cncc(C(N)=O)c2)C1 (single isomer, unassigned) [Compound 382]")
"> 1 µM"
>>> recorded_result("CCc1cc(NC(=O)C(=O)N2C[C@H](C)CC[C@H]2c2ccc(C)nc2)cnc1N (single isomer, unassigned) [Compound 756]")
"> 1 µM"
>>> recorded_result("CNc1cccc([C@H]2CCCCN2C(=O)C(=O)Nc2cncc(C(N)=O)c2)c1 (single isomer, unassigned) [Compound 316]")
"> 1 µM"
>>> recorded_result("COc1ncc(NC(=O)C(=O)N2C[C@@H](C)CC[C@@H]2c2cccs2)cc1C(N)=O (single isomer, unassigned) [Compound 303]")
"< 0.1 µM"
>>> recorded_result("Cc1cc(NC(=O)C(=O)N2C[C@H](C)CC[C@H]2c2ccc(-c3nccs3)cc2)cnc1N (single isomer, unassigned) [Compound 816]")
"> 1 µM"
>>> recorded_result("C[C@@H]1CN(C(=O)C(=O)Nc2cncc(C(N)=O)c2)[C@@H](c2ccccc2)C[C@H]1O (racemic) [Compound 459]")
"0.1 to 1 µM"
>>> recorded_result("C[C@@H]1CC[C@@H](c2ccc(NCC(F)(F)F)cc2)N(C(=O)C(=O)Nc2cncc(C(N)=O)c2)C1 (single isomer, unassigned) [Compound 455]")
"0.1 to 1 µM"
>>> recorded_result("CCOc1ncc(NC(=O)C(=O)N2C[C@H](C)CC[C@H]2c2ccccc2)cc1C(N)=O (single isomer, unassigned) [Compound 765]")
"> 1 µM"
>>> recorded_result("C[C@@H]1C[C@H](C)[C@@H](c2ccccc2)N(C(=O)C(=O)Nc2cncc(C(N)=O)c2)C1 (single isomer, unassigned) [Compound 311]")
"0.1 to 1 µM"
>>> recorded_result("CCc1cc(NC(=O)C(=O)N2CC(C)CCC2c2ccc3sc(C4CCN(C)CC4C)nc3c2)cnc1N (racemic) [Compound 1131]")
"< 0.1 µM"

---

# SUBJECT_OF_TEST: PRMT5 (Homo sapiens)
# Construct: purchased Viva (custom protein)
# Sequence (O14744 whole entry): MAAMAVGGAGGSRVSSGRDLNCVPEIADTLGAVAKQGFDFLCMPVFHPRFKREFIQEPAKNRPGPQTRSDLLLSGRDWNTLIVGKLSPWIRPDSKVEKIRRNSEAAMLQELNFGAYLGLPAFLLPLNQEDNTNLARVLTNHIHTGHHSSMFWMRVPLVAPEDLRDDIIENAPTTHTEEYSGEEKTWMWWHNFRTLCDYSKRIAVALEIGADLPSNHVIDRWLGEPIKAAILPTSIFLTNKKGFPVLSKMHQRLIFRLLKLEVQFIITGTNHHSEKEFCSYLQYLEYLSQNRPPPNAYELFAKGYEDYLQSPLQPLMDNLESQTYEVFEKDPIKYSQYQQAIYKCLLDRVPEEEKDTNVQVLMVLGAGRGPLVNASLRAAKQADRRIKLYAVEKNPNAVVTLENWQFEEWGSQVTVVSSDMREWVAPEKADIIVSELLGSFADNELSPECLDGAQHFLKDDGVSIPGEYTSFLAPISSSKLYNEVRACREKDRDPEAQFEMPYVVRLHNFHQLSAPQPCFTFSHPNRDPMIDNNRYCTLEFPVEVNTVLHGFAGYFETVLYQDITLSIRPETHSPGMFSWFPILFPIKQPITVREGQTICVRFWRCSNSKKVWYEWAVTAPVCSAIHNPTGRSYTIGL
# Sequence (Q9BQA1 whole entry partner): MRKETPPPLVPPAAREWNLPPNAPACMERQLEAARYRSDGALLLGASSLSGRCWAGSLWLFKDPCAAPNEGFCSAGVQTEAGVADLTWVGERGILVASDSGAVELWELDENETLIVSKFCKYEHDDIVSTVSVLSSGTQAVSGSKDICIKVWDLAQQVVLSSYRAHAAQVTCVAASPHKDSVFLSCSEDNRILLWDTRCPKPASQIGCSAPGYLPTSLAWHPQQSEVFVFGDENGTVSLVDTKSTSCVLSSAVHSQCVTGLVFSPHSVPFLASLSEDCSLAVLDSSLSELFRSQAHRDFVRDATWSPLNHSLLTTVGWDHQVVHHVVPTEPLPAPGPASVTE
# RUN_DESCRIPTION: PRMT5 biochemical IC50 assay with SAM as cofactor
# EXPERIMENTAL_CONTEXT: PRMT5, SAM as cofactor; read-out: SAM IC50
ATTRIBUTE_MEASURED: IC50

>>> recorded_result("CCc1cc(NC(=O)C(=O)N2C[C@@H](C)CC[C@@H]2c2cccc(OC[C@H]3CCN(C)C3)c2)cnc1N")
"< 50 nM"
>>> recorded_result("COc1ncc(NC(=O)C(=O)N2C[C@H](C)CC[C@H]2c2ccc3nn(C)cc3c2)cc1C(N)=O (single isomer, unassigned)")
"> 500 nM"
>>> recorded_result("COc1ncc(NC(=O)C(=O)N2C[C@H](C)C(F)(F)C[C@H]2c2ccc(C)nc2)cc1C(N)=O (single isomer, unassigned)")
"> 500 nM"
>>> recorded_result("Cc1cc(NC(=O)C(=O)N2C[C@H](C)CC[C@H]2c2ccc3c(c2)CCCN3)cnc1N (single isomer, unassigned)")
"50 to 500 nM"
>>> recorded_result("Cc1cc(NC(=O)C(=O)N2C[C@@H](C)CC(F)(F)[C@@H]2c2ccc(F)cc2)cnc1N (racemic)")
"50 to 500 nM"
>>> recorded_result("Cc1cc(NC(=O)C(=O)N2C[C@@H](C)CC[C@@H]2c2ccc(-c3cncs3)cc2)cnc1N (single isomer, unassigned)")
"50 to 500 nM"
